tested_target: Follistatin-related protein 3 (Homo sapiens) (UniProt O95633)
Sequence (O95633 whole entry, looked up): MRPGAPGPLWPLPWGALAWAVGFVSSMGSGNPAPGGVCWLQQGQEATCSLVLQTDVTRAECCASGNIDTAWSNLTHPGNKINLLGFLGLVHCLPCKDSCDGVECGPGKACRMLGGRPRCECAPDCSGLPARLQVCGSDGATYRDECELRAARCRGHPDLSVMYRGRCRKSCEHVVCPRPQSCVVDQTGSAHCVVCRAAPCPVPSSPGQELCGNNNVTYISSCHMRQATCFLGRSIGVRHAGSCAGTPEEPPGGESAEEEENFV
assay_name: compounds binding follistatin-related protein 3 – biochemical, small-molecule microarray, 635 nm fluorescence, primary screen (AID 1105);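 note: score merges emission near 667 nm and signal to noise per printed spot across three slides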
study_conditions: FSTL3 binding, higher = more signal
Use MET when the recorded composite z-score is no lower than 1; use NOT MET when it is lower.

Can `Cc1ccc(S[C@]2(C(=O)NCCCN(C)C)CC(=O)N(Cc3ccccc3)[C@@H]2c2ccc(CO)cc2)cc1` be said to have composite z-score at or above 1?
NOT MET

Further, for `COCCOC(=O)N1C(=O)[C@@]2(c3cc(C#CCC(C(=O)OC)C(=O)OC)ccc31)[C@H](c1ccccc1OCCO)N1[C@H](c3ccccc3)[C@H](c3ccccc3)OC(=O)[C@H]1[C@@H]2C(=O)Nc1nc2ccccc2s1` ?
MET

Further, for `CCCC[C@@H]1C[C@H]1[C@@H](NC(=O)c1ccco1)c1ccccc1` ?
NOT MET

Further, for `CC(C)[C@H]1COC(=O)N1C(=O)[C@H]1[C@@H](c2ccccc2)N(c2ccccc2)O[C@@H]1C` ?
MET

Further, for `C=C(CCCC)/C(=C/C[C@@H](OC(=O)c1ccncc1)c1ccc(CO)o1)c1cc(C(=O)OC)ccc1OC` ?
MET

----------
assay_name: small molecules captured by biotinylated probe aFGF2 – biochemical, small-molecule microarray, fluorescence 635/667, stem cell growth factor project, primary screen (AID 1067);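 note: measures binding of biotinylated aFGF2 protein to printed compounds on slides; z-score merges feature fluorescence and signal-to-noise across triplicate slides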
study_conditions: higher = more signal
parameter: composite z-score
Please give only the number in your answer, with no unit.

Reported composite z-score for O=C1C2C=CC(C(O)c3ccc(B(O)O)cc3)N(Nc3ccc([N+](=O)[O-])cc3)C2C(=O)N1c1ccccc1 (configuration not stated) : what is it?
0.0121

Further, for `COCC1=C([C@H](O)CCc2ccccc2)[C@H](CO)[C@@H]2C(=O)N(Cc3ccccc3)C(=O)[C@@H]2C1` ?
-0.101

Further, for `O=C1O[C@H](c2ccccc2)[C@H](c2ccccc2)N2[C@H]1[C@@H](C(=O)NC[C@H](O)c1ccccc1)[C@]1(C(=O)Nc3ccc(C#CC4=CCCCC4)cc31)[C@H]2c1ccc(O)cc1` ?
0.146

Further, for O=C1OCCC/C=C\[C@H]2OC34C=CCN(Cn5nnc6ccccc65)C(=O)[C@H]3N(CCCO)C(=O)[C@@H]4C12 (some centres not stated) ?
-0.017

Further, for `[N-]=[N+]=Nc1ccccc1[C@@H]1OC(c2ccc(OCCCO)cc2)=N[C@]1(CCS(=O)(=O)c1ccccc1)C(=O)N1CCCCC1` ?
0.206

Further, for `NC(=O)NCC#Cc1ccc2c(c1)[C@]1(C(=O)N2)[C@H](c2ccccc2OCCO)N2[C@H](c3ccccc3)[C@H](c3ccccc3)OC(=O)[C@H]2[C@@H]1C(=O)N1CCCCCCC1` ?
0.866

Further, for C=CCC(OC(C)=O)[C@@H]1[C@@H](N(Cc2ccc(-c3ccccc3)cc2)C(=O)c2ccc(C)cc2)c2cc(OCCCO)ccc2N1C(=O)c1ccc2ccccc2n1 (some centres not stated) ?
-0.0434

----------
tested_target: Concanavalin-A (Canavalia ensiformis) (UniProt P02866)
Sequence (P02866 whole entry, looked up): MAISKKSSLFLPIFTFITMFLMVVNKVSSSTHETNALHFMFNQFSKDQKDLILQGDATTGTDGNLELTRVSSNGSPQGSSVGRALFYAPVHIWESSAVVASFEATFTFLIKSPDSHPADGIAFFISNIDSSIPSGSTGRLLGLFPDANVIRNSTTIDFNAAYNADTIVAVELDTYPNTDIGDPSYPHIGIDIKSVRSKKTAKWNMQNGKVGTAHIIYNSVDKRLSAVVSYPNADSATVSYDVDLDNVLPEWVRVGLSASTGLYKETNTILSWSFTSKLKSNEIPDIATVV
assay_name: compounds binding concanavalin A lectin – biochemical, small-molecule microarray, Alexa647 label, 635 nm, artefact control for SMM control protein annotation, primary screen (AID 1127);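 note: z combines 667 nm emission intensity with signal-to-noise across three replicate slides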
study_conditions: ConA-A647 binding fluorescence, higher = more signal
Use 1 when the recorded composite z-score is no lower than 1; use -1 when it is lower.

Can `C[N+](C)(C)CCCC[C@@H]1NC(=O)[C@H]2C[C@@H](C(=O)O)[C@@H](c3cccc(OCCO)c3)N2C1=O` be said to have composite z-score at or above 1?
1

Further, for `COC(=O)[C@@]1(Cc2ccc(F)cc2)[C@H]2c3cc(C(=O)N(C)C)n(CCc4c[nH]c5ccc(OC)cc45)c3C[C@H]2CN1C(=O)c1ccccc1` ?
-1

Further, for `NC(=O)NCC#Cc1ccc2c(c1)[C@]1(C(=O)N2)[C@H](c2ccccc2OCCO)N2[C@H](c3ccccc3)[C@H](c3ccccc3)OC(=O)[C@H]2[C@@H]1C(=O)N1CCCCCCC1` ?
1

Further, for `CC(C)[Si]1(C(C)C)O[C@@H](c2ccccc2)c2cc(-c3ccc(-c4ccc(Cl)c(Cl)c4)o3)nc(CCc3ccccc3)c21` ?
-1

Further, for CN1C(=O)C2C=CC(C(O)C(c3ccccc3)c3ccccc3)N(Nc3ccccc3)C2C1=O (stereo not drawn) ?
1

Further, for `CC(C)CNC(=O)[C@@]1(C)c2ccccc2C(=O)N(C(C)C)[C@H]1c1ccc(CO)cc1` ?
-1

Further, for `CCCCCCC#C[Si](O[C@H](c1ccccc1)c1cn([C@H](C)c2ccccc2)nn1)(C(C)C)C(C)C` ?
-1

Further, for `O=c1cccc(-c2ccccc2)o1` ?
-1

Further, for `C=C(CCCC)C(=O)CC[C@@H](OC(=O)c1ccccc1-c1ccccc1C(=O)O)c1ccc(CO)o1` ?
-1

Further, for `C=CC[C@@]1(C(=O)NCc2ccccc2)N=C(c2ccc(OCCCO)cc2)O[C@@H]1c1ccccc1CN=[N+]=[N-]` ?
1

Further, for `O=[N+]([O-])c1ccc(C[n+]2ccc(CCCO)cc2)o1` ?
1

Further, for `C=CCNC(=O)[C@@H]1[C@H]2C(=O)O[C@H](c3ccccc3)[C@H](c3ccccc3)N2[C@H](c2ccccc2OCCO)[C@@]12C(=O)N(C(=O)OCCOC)c1ccc(C#CCC(C(=O)OC)C(=O)OC)cc12` ?
1

Further, for `Cc1ccc(N2C(=O)c3ccccc3[C@@H](C(=O)NCC(C)C)[C@@H]2c2ccc(CO)cc2)nc1` ?
-1

Further, for `CCCC[C@H]1OB(O)C[C@H]2C1=C(COc1ccccc1)C[C@H]1C(=O)N(Cc3ccccc3)C(=O)[C@H]12` ?
1

Further, for `CC(=O)N1Cc2ccccc2C[C@@]2(N=C(c3ccc(OCCCO)cc3)O[C@H]2c2ccccc2)C1=O` ?
1

Further, for `CCOC(=O)C1=CC[C@@H](c2ccccc2)N(S(=O)(=O)c2ccc(C)cc2)[C@H]1c1ccc(C#N)cc1` ?
1

Further, for `COc1ccc([Si](C)(C)[C@H]2[C@H](CC(=O)N(CCO)Cc3ccccc3)O[C@@]3(C(=O)N(Cc4cccc(N5C(=O)c6cccc7cccc5c67)c4)c4ccccc43)[C@@H]2C)cc1` ?
1

Further, for `O=C1c2ccccc2[C@@]2(Cc3ccccc3N(Cc3ccccc3)C2=O)[C@H](c2ccc(CO)cc2)N1Cc1ccccc1C(F)(F)F` ?
-1

Further, for `COCCOC(=O)N1C(=O)[C@@]2(c3cc(C#CCC(C(=O)OC)C(=O)OC)ccc31)[C@H](c1ccccc1OCCO)N1[C@H](c3ccccc3)[C@H](c3ccccc3)OC(=O)[C@H]1[C@@H]2C(=O)Nc1nc2ccccc2s1` ?
1

Further, for `[N-]=[N+]=NCc1ccccc1[C@@H]1OC(c2ccc(OCCCO)cc2)=N[C@]1(Cc1ccccc1N=[N+]=[N-])C(N)=O` ?
1

Further, for `C=C[C@H](C)[C@H](OC(=O)Nc1ccc(OC)cc1)c1ccc(O)c2ccccc12` ?
-1

Further, for CN1C(=O)C2C=CC(C(O)c3ccccc3)N(NC(=O)OC(C)(C)C)C2C1=O (stereo not drawn) ?
-1

Further, for `COc1c(C)cc(-c2cc3c(c(-c4ccccc4)n2)[Si](C(C)C)(C(C)C)O[C@H]3c2ccccc2)cc1C` ?
-1
